# test.system: T1, human receptor tyrosine kinase AXL (human, UniProt P30530 26-894)
# T1 construct: also called hAXL; human AXL on NIH3T3-AXL cI.7, RatI-AXL cI.2 and human cancer cell lines
# T1 sequence: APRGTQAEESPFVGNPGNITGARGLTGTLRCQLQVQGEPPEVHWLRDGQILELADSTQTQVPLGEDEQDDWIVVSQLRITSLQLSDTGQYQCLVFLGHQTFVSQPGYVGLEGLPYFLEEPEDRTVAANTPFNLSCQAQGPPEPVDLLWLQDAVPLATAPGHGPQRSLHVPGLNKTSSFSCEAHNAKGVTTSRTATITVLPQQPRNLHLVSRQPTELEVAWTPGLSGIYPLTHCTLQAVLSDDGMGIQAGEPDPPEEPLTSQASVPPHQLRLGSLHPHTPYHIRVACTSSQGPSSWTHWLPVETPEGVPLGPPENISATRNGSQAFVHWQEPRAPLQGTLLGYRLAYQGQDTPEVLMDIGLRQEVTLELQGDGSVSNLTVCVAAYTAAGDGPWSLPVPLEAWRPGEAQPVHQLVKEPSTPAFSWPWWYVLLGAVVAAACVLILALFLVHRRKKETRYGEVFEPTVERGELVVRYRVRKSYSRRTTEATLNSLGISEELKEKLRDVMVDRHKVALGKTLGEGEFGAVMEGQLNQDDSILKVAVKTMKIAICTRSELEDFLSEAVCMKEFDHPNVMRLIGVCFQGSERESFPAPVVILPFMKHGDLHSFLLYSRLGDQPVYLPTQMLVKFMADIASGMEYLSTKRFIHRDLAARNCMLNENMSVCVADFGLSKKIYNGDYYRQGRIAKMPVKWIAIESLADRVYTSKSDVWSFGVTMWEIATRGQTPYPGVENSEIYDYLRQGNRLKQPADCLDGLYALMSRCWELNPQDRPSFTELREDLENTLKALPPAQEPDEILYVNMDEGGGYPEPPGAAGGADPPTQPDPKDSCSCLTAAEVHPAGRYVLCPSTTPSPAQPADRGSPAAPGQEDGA
# assay.overview: FACS Scatchard on human AXL overexpressing NIH3T3 cells; apparent KD (KDapp)
property.label: pKd
Scale for pKd: -log10 of concentration given in mol/L; no unit attached.

Use these answered entries as a reference point.
binder	numeric.readout
chimeric anti-AXL antibody ch11B7-IgG1 (antibody, V domains shown, Rat/human chimera, human IgG1/kappa; also called chm11B7; chimeric anti-AXL mAb #11B7) VH: EVQLQESGPGLVKPSQSLSLTCSVTGYSITSNYWGWIRKFPGDKMEWMGYITYSGSTSYNPSLKSRISITRDTSKNQFFLQLNSVTSEDTATYYCAITTFYYWGQGVMVTVSS VL: DIQMTQAPSSLPASLGDRVTITCRASQDIGNYLRWFQQKPGKSPRLMISGATNLAAGVPSRFSGSRSGSDYSLTISSLESEDMADYYCLQSKESPWTFGGGTKLELKR	9.22
rat anti-human AXL monoclonal antibody #11D5 (antibody, rat IgG2a, V domains shown, Rat IgG2a/kappa from hybridoma; also called III11D5) VH: EVQLQESGPGLVKPSQSLSLTCSVTGYSITSNYWGWIRKFPGNKMEWIGHITNSGNTTYNPSLKSRISISRDTSRNQFFLQLNSVTTEDTATYYCAKGAFDYWGQGVMVTVSS VL: DIQMTQSPSSMSTSLGDRVTITCRASQDIGNYLSWFQQKVGKSPRRMIYGAIKLAVGVPSRFSGSRSGSDYSLTISSLESEDMAIYYCLQYIQFPLTFGSGTKLELKR	9.09
chimeric anti-AXL antibody ch11D5-IgG1 (antibody, V domains shown, Rat/human chimera, human IgG1/kappa; also called chm11D5; human chimeric antibody) VH: EVQLQESGPGLVKPSQSLSLTCSVTGYSITSNYWGWIRKFPGNKMEWIGHITNSGNTTYNPSLKSRISISRDTSRNQFFLQLNSVTTEDTATYYCAKGAFDYWGQGVMVTVSS VL: DIQMTQSPSSMSTSLGDRVTITCRASQDIGNYLSWFQQKVGKSPRRMIYGAIKLAVGVPSRFSGSRSGSDYSLTISSLESEDMAIYYCLQYIQFPLTFGSGTKLELKR	9.40

Next:
Kindly note the recorded pKd for rat anti-human AXL monoclonal antibody #11B7 (antibody, rat IgG1, V domains shown, Rat IgG1/kappa from hybridoma; also called I11B7; rat anti-AXL antibody 11B7) VH: EVQLQESGPGLVKPSQSLSLTCSVTGYSITSNYWGWIRKFPGDKMEWMGYITYSGSTSYNPSLKSRISITRDTSKNQFFLQLNSVTSEDTATYYCAITTFYYWGQGVMVTVSS VL: DIQMTQAPSSLPASLGDRVTITCRASQDIGNYLRWFQQKPGKSPRLMISGATNLAAGVPSRFSGSRSGSDYSLTISSLESEDMADYYCLQSKESPWTFGGGTKLELKR , which is 9.42
